assay.details: Half life in human liver microsomes
Type: ADME
metric.name: half-life

Query: Determine its reported half-life: `O=C(c1ccc(F)cc1)N1CCn2c(nnc2-c2ccccn2)C1`
Response: > 4 h

###

assay.target: Substance-P receptor (Homo sapiens, UniProt P25103)
Sequence (P25103 whole entry): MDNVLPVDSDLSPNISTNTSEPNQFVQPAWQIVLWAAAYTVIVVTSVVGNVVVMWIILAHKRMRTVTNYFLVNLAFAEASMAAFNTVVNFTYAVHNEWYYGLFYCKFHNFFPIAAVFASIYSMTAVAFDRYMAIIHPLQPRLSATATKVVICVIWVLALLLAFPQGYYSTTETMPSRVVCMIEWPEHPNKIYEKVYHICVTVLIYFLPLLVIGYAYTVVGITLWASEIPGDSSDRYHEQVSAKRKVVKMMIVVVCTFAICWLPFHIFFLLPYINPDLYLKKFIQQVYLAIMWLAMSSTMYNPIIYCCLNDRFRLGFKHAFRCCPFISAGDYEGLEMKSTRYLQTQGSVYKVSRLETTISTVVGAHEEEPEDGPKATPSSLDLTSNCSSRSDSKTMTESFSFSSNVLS
metric.name: Ki (µM)
Expressed in µM, but write only the number.

Query: Consider the molecule `C[C@@H]1c2nnc(-c3csc(-c4ccc(F)cc4F)n3)n2CCN1C(=O)c1ccc(-c2cccs2)cc1` tested on Substance-P receptor (Homo sapiens, UniProt P25103); state its Ki.
Response: 1.26

###

assay.details: Solubility of the compound in PBS buffer at pH 7.4 by shake-flask method
Type: physicochemical
As shown below, each of these molecules has a reported solubility thermodynamic value.
State just the number; it will be interpreted in µM.

Worked examples follow.
Cc1cccc(-c2nnc3n2CCN(C(=O)c2ccc(-c4cccs4)cc2)[C@@H]3C)n1
110
Cc1noc(-c2nnc3n2CCN(C(=O)c2ccc(-c4cccs4)cc2)[C@@H]3C)n1
185

Turning now to a further molecule:
Query: Look up solubility thermodynamic of `Cc1csc(-c2nnc3n2CCN(C(=O)c2ccc(-c4cccs4)cc2)[C@@H]3C)n1` and report it.
Response: 50
